These measurements were taken from IntAct's records for PubMed 25910212.

B1: EF-hand domain-containing protein 1 (Homo sapiens), Q5JVL4 (parent)
chain: MVSNPVHGLPFLPGTSFKDSTKTAFHRSQTLSYRNGYAIVRRPTVGIGGDRLQFNQLSQAELDELASKAPVLTYGQPKQAPPADFIPAHVAFDKKVLKFDAYFQEDVPMSTEEQYRIRQVNIYYYLEDDSMSVIEPVVENSGILQGKLIKRQRLAKNDRGDHYHWKDLNRGINITIYGKTFRVVDCDQFTQVFLESQGIELNPPEKMALDPYTELRKQPLRKYVTPSDFDQLKQFLTFDKQVLRFYAIWDDTDSMYGECRTYIIHYYLMDDTVEIREVHERNDGRDPFPLLMNRQRVPKVLVENAKNFPQCVLEISDQEVLEWYTAKDFIVGKSLTILGRTFFIYDCDPFTRRYYKEKFGITDLPRIDVSKREPPPVKQELPPYNGFGLVEDSAQNCFALIPKAPKKDVIKMLVNDNKVLRYLAVLESPIPEDKDRRFVFSYFLATDMISIFEPPVRNSGIIGGKYLGRTKVVKPYSTVDNPVYYGPSDFFIGAVIEVFGHRFIILDTDEYVLKYMESNAAQYSPEALASIQNHVRKREAPAPEAESKQTEKDPGVQELEALIDTIQKQLKDHSCKDNIREAFQIYDKEASGYVDRDMFFKICESLNVPVDDSLVKELIRMCSHGEGKINYYNFVRAFSN
partner: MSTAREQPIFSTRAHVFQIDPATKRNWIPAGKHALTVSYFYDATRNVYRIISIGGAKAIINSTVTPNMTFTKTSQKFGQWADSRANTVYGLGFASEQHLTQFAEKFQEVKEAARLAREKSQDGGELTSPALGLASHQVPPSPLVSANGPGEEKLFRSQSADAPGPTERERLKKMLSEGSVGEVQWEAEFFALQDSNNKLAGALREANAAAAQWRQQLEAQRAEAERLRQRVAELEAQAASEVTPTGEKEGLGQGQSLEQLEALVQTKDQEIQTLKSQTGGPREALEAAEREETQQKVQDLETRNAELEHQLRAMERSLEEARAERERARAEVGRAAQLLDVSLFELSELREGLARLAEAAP

Variants of: B1
Details: with home3_human HOMER3, Q9NSC5
quantity kind: effect of a mutation on the interaction

var: M448T
quantity kind: effect of a mutation on the interaction
result: with no effect

var: R159W
quantity kind: effect of a mutation on the interaction
result: with no effect

var: T508R
quantity kind: effect of a mutation on the interaction
result: with no effect
